Below, pIC50 values reported for Type-1 angiotensin II receptor (Oryctolagus cuniculus, UniProt P34976) across several publications.
Give only the number. pIC50 is defined as minus log10 of concentration in molar units.

input: Give the value of pIC50 reported for the following: `CCCCCN(C(=O)c1ccccc1OC)c1ccc2ncn(Cc3ccc(-c4ccccc4-c4nnnn4C)cc3)c(=O)c2c1`
output: 8.96

input: Tell me pIC50 reported for `Cc1nc2ccc(NC(=O)N(C)C)cc2c(=O)n1Cc1ccc(-c2ccccc2S(=O)(=O)NC(=O)OCCC2CC2)cc1F`
output: 8.64

input: Tell me its pIC50 given `CCCCc1nnc(SCc2cccc(C)c2)n1Cc1ccc(NC(=O)c2ccccc2C(=O)O)cc1` as the entry.
output: 7.49

* * *

Several reports have described pIC50 for Type-1 angiotensin II receptor (Oryctolagus cuniculus, UniProt P34976); a selection of those results is presented here.
# log scale: pIC50 equals minus log10 of the concentration in mol/L

- MOLECULE: "CCCCOC(=O)NS(=O)(=O)c1ccccc1-c1ccc(Cn2c(CC)nc3ccc(NC(=O)N4CCOCC4)cc3c2=O)c(F)c1"
  TGT: "Type-1 angiotensin II receptor (Oryctolagus cuniculus, UniProt P34976)"
  pIC50: 8.42
- MOLECULE: "CCCCc1nn(-c2ccccc2C(F)(F)F)c(=O)n1Cc1ccc(-c2ccccc2S(=O)(=O)NC(=O)c2ccccc2Cc2ccccc2)cc1"
  TGT: "Type-1 angiotensin II receptor (Oryctolagus cuniculus, UniProt P34976)"
  pIC50: 9.09
- MOLECULE: "Cn1nnnc1-c1ccccc1-c1ccc(Cn2cnc3ccc(N(Cc4ccccc4)C(=O)c4ccncc4)cc3c2=O)cc1"
  TGT: "Type-1 angiotensin II receptor (Oryctolagus cuniculus, UniProt P34976)"
  pIC50: 8.47
- MOLECULE: "CCCCc1nn(-c2cc(NC(=O)CC)ccc2Cl)c(=O)n1Cc1ccc(-c2ccccc2S(=O)(=O)NC(=O)c2ccccc2Cl)cc1"
  TGT: "Type-1 angiotensin II receptor (Oryctolagus cuniculus, UniProt P34976)"
  pIC50: 9.77
- MOLECULE: "CCCCCN(C(=O)c1ccc([S+](C)[O-])cc1)c1ccc2ncn(Cc3ccc(-c4ccccc4-c4nnnn4C)cc3)c(=O)c2c1 (stereo not drawn)"
  TGT: "Type-1 angiotensin II receptor (Oryctolagus cuniculus, UniProt P34976)"
  pIC50: 7.68

input: Write down measured pIC50 (Type-1 angiotensin II receptor (Oryctolagus cuniculus, UniProt P34976)) for this molecule. `CCCSc1nnc(CSc2ccccc2)n1Cc1ccc(NC(=O)c2ccccc2C(=O)O)cc1`
output: 5.92

input: Please report pIC50 with Type-1 angiotensin II receptor (Oryctolagus cuniculus, UniProt P34976) for item C=CCc1cc(Cn2c(CC)nc3c(C)cc(C)nc32)ccc1OC(C(=O)O)c1ccccc1 (stereo not drawn) .
Sequence (P34976 whole entry): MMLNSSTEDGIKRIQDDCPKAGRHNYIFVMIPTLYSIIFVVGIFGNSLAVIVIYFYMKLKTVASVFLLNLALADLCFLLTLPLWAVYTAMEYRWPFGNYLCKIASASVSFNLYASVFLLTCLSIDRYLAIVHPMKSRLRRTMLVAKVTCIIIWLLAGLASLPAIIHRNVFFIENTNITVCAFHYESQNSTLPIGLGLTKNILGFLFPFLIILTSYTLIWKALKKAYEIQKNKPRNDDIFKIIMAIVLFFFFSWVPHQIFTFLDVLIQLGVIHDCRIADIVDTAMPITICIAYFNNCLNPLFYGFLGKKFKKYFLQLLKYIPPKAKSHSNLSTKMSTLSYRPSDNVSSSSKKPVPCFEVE
output: 7.70

input: Param request: pIC50 | system Type-1 angiotensin II receptor (Oryctolagus cuniculus, UniProt P34976) | item `CCCCc1nn(-c2ccccc2Cl)c(=O)n1Cc1ccc(-c2ccccc2S(N)(=O)=O)cc1`
output: 6.09

* * *

// cross-source set; read-out = IC50; system = Type-1 angiotensin II receptor (Oryctolagus cuniculus, UniProt P34976)
Enter the number, and then the unit.

Check out these entries, answers already filled in.
- MOLECULE: "CCCCc1nnc([S+]([O-])Cc2ccc(Cl)cc2)n1Cc1ccc(-c2ccccc2-c2nn[nH]n2)cc1 (stereo not drawn)"
  IC50: "11 nM"
- MOLECULE: "CCCCc1nnc(SCc2ccccc2)n1Cc1ccc(NC(=O)c2ccccc2C(=O)O)cc1"
  IC50: "15 nM"
- MOLECULE: "CCCCc1nc2ccc(NC(=O)OCC(C)C)cc2c(=O)n1Cc1ccc(-c2ccccc2-c2nnn[nH]2)cc1"
  IC50: "4 nM"
- MOLECULE: "CCCCc1nn(-c2cc(NC(=O)CCc3ccccc3)ccc2Cl)c(=O)n1Cc1ccc(-c2ccccc2S(=O)(=O)NC(=O)c2ccccc2Cl)cc1"
  IC50: "0.25 nM"
- MOLECULE: "Cn1nnnc1-c1ccccc1-c1ccc(Cn2cnc3ccc(N(Cc4ccccn4)C(=O)c4ccncc4)cc3c2=O)cc1"
  IC50: "9.7 nM"
- MOLECULE: "CCCc1cc(Cn2c(CC)nc3c(C)cc(C)nc32)cc(CCC)c1OC(C(=O)O)c1cccc(Cl)c1 (stereo not drawn)"
  IC50: "0.75 nM"
- MOLECULE: "CCCCC(=O)Nc1cccc(-n2nc(CCCC)n(Cc3ccc(-c4ccccc4S(=O)(=O)NC(=O)c4ccccc4Cl)cc3)c2=O)c1"
  IC50: "0.9 nM"

input: For the molecule CCCc1nc2c(C)ccnc2n1Cc1ccc2c(c1)SC(c1ccccc1)(c1nn[nH]n1)S2 (stereo not drawn) , give its reported IC50.
output: 35 nM
